- assay-notes: Plasma levels of J147 after oral administration in Basis suspension
- Assay type: in vivo, Adult Wister Rats
- conditions-used: Wistar, rat, plasma, po, 20 mg/kg, oral 20 mg/kg in Basis suspension; 0.25 h; mean of rats; read-out: Plasma Conc. Mean

molecule | concentration at 0.25 h [ng/mL]
COc1cccc(/C=N/N(C(=O)C(F)(F)F)c2ccc(C)cc2C)c1 [J147] | 1.34

---

- assay-notes: Plasma levels of J147 after oral administration in Basis suspension
- Type: in vivo, Adult Wister Rats
- conditions-used: Wistar, rat, plasma, po, 20 mg/kg, oral 20 mg/kg in Basis suspension; 8 h; individual rats (Rat 10, 11, 12); read-out: Plasma Conc.
attribute-measured: concentration at 8 h (ng/mL)

molecule | measured-number
COc1cccc(/C=N/N(C(=O)C(F)(F)F)c2ccc(C)cc2C)c1 [J147] | 0.822
